B1: tRNA (parent)
chain: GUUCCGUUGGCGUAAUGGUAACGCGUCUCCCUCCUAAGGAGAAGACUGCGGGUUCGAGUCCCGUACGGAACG

# Variants of: B1
# Experiment: yeast fitness relative to wild type (ratio to wild type); higher = fitter; tRNA-Arg(CCU), competitive growth, 37 C, YPD
This sample holds only a part of the variants without activity.
Item-by-item account of yeast fitness
Hey, just send me the number, nothing else.

variant_code="C34A G68U" reported_endpoint="yeast fitness" observed_value=0.647
variant_code="G12C A40G" reported_endpoint="yeast fitness" observed_value=0.683
variant_code="C27G G51C" reported_endpoint="yeast fitness" observed_value=0.78
variant_code="G6A G56A" reported_endpoint="yeast fitness" observed_value=0.852
variant_code="C34G G41C" reported_endpoint="yeast fitness" observed_value=0.617

// sample U3G C5G A20C A43C , its yeast fitness was 0.557

// sample A15G U19G C66U , its yeast fitness was 0.721

// sample C5A U35C A36U , its yeast fitness was 0.57

// sample C4G A14C G25C A45U A57U , its yeast fitness was 0.55

// sample C29U C30U G63A , its yeast fitness was 0.514
